# SUBJECT OF TEST: Cytochrome P450 3A4 (Homo sapiens) (UniProt P08684)
# Sequence (P08684 whole entry, looked up): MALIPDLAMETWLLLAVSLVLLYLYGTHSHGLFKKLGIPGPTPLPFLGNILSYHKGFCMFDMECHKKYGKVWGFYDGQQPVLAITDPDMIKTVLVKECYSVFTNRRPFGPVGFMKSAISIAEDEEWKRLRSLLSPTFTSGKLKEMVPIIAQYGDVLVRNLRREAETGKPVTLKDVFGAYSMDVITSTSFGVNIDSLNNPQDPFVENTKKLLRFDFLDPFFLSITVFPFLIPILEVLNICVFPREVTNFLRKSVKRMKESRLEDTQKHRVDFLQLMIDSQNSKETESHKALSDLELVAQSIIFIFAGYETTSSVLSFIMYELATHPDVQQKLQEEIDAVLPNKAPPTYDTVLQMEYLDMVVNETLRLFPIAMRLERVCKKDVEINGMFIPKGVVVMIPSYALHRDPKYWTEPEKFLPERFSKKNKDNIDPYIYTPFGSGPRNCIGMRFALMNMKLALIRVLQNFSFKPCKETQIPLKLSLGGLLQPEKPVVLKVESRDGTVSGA
# ASSAY NAME: qHTS Assay for Activators of Cytochrome P450 3A4 (AID 885); further: nearly all actives have a fitted effect of over 65% in size
# STATED CONDITIONS: recombinant CYP3A4, Luciferin-PPXE luminescence, 60 min; series mostly up to 57.1 µM
The source made the active and inactive calls. The call rests on the fitted dose curve; in most records, active means well fitted activation curve with a large enough effect; inconclusive means small, poorly fitted or top-dose-only effect; inactive means no such curve, though single readings can be large or run the other way.
Answer with one of the outcomes 1 = active, 0 = inactive

Write down the call the test reported for this compound. Item: Cn1cccc1C(=O)N1CCC2(CC1)CN(C(c1ccccc1)c1ccccc1)C2 1

In this assay, the call recorded for CCNc1ncc2nc(-c3ccc(OC)cc3)c(=O)n(Cc3cccc(OC)c3)c2n1 was what? 0

Outcome logged for Cc1ccccc1-c1cncnc1NC1CCNCC1 in this assay: 0

Recorded test call requested for N#Cc1cccc(-c2nccc(NCc3cccs3)n2)c1 0

Identify the outcome logged in this assay for the compound shown: Cc1nc2cnc(Oc3ccccc3)nc2n(-c2ccccc2)c1=O 0

###

# ASSAY NAME: AP1 Signaling Pathway (AID 357);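 further: ME-180 reporter cells stimulated with EGF at its EC50 level; on the % scale 0 is the no-effect control and ±100 the full control effect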
# STATED CONDITIONS: ME-180 AP-1-bla reporter, EGF-induced, beta-lactamase ratio, 5 h; at 7.69 µM (top of the series) unless noted
Records with an inconclusive call do not appear.
Threshold check on activity change, negative = inhibition: at or above -10% gives Yes, strictly below gives No.

Answer whether activity change, negative = inhibition of COc1cccc(-c2nccc(NCc3ccc(OC)cc3OC)n2)c1 is greater than or equal to -10%. No

Quick check: does CS(=O)(=O)N1CCC[C@@]2(CCN(c3ncccn3)C2)C1 have activity change, negative = inhibition greater than or equal to -10%? Yes

Evaluate COc1ccc(C(=O)N2CCC3(CC2)CN(c2ccccn2)C3)cc1 : activity change, negative = inhibition at minimum -10%? Yes

Check the entry COc1ccc(C(=O)N2CCC3(CCCN(c4ccc(-c5ccccc5)cc4)C3)CC2)cc1 : does activity change, negative = inhibition equal or exceed -10%? Yes

API: above_or_equal(metric=activity change, negative = inhibition, cutoff=-10%) for item COc1cccc(-c2ccc3ncnc(NCCN4CCOCC4)c3c2)c1 No

Reported activity change, negative = inhibition reaches at least -10% for COc1ccc(CNc2ncncc2-c2ccc(N(C)C)cc2)c(OC)c1 ? Yes

Record COc1ncc2nc(C)c(=O)n(CCc3ccccc3)c2n1 ; criterion: activity change, negative = inhibition no lower than -10%. Met? Yes

Entry COc1ccc(CNc2ccnc(-c3ccccc3Cl)n2)c(OC)c1 : is its activity change, negative = inhibition no less than -10%? No

In plain terms: is recorded activity change, negative = inhibition at least -10% for COc1ccc(CNc2nc(-c3ccoc3)nc3ccccc23)c(OC)c1 ? No

Check if activity change, negative = inhibition >= -10% (inclusive). Item: CCNc1ncc2nc(-c3cccc(C#N)c3)c(=O)n(Cc3cccc(OC)c3)c2n1 Yes

Dear colleague, could you confirm whether COc1ccc(Oc2ncc3nc(-c4ccc(Cl)cc4)c(=O)n(C4CC4)c3n2)cc1 has activity change, negative = inhibition at or above -10%? No

API: above_or_equal(metric=activity change, negative = inhibition, cutoff=-10%) for item O=C(c1cc(C(F)(F)F)cc(C(F)(F)F)c1)N1CCC2(CCCN(Cc3ccncc3)C2)CC1 Yes

Item O=C(c1csnn1)N1CCC2(CCN(Cc3nccs3)CC2)CC1 with activity change, negative = inhibition of -10% or above? Yes

Hello, I need to know if COCC(=O)N1CCC[C@@]2(CCN(c3ccccc3)C2)C1 has measured activity change, negative = inhibition not below -10%. Thanks! Yes

Is activity change, negative = inhibition for COc1ccc(Oc2ncc3nc(C)c(=O)n(C)c3n2)cc1 at or above -10%? Yes

Could you please find out whether N#Cc1cccc(-c2nc3cnc(N4CCNCC4)nc3n(C3CC3)c2=O)c1 has activity change, negative = inhibition that meets -10% or exceeds it? Yes

Decide: is the reported value of activity change, negative = inhibition for COc1cccc(Cn2c(=O)cnc3cnc(N4CCOCC4)nc32)c1 equal to or greater than -10%? No

For this compound, is measured activity change, negative = inhibition -10% or higher? Cc1cccc(CNc2ccnc(-c3cccc(NS(C)(=O)=O)c3)n2)c1 No

In plain terms: is recorded activity change, negative = inhibition at least -10% for COc1ccc2[nH]cc(CCNc3ccnc(-c4ccoc4)n3)c2c1 ? No

For this compound, is measured activity change, negative = inhibition -10% or higher? COCC(=O)N1CCC2(CC1)CN(c1cccc(-c3ccccc3)c1)C2 No

Could you verify whether the entry Cc1nc2cnc(Oc3ccccc3)nc2n(-c2ccccc2)c1=O shows activity change, negative = inhibition of no less than -10%? Yes

###

# Tested on: CP297
# ASSAY NAME: qHTS profiling for inhibitors of Plasmodium falciparum proliferation (AID 504749); further: nearly all actives have a fitted effect of over 60% in size
# STATED CONDITIONS: P. falciparum in erythrocytes, SYBR Green DNA, 72 h; series mostly up to 12.8 µM
Inconclusive results are not listed. Calls of active or inactive are those of the source. Calls come from the whole dose curve; as a rule, active = well fitted inhibition curve with a large enough effect; inconclusive = small, poorly fitted or top-dose-only effect; inactive = flat fitted curve, though single readings scatter.
Form entry, call: pick from T = active, F = inactive

Test call, this compound: C[C@@H](CN(C)C)CN1c2ccccc2CCc2ccccc21 F

Recorded call for CN1[C@@H]2CC[C@H]1CC(OC(=O)[C@@H](O)c1ccccc1)C2 (stereo not given in full) ? F

Answer briefly: the call reported for O=C(O)/C=C\c1ccc(Cn2ccnc2)cc1 in this assay. F

Hi, sorry to bother you, what did the test record for O=c1[nH]cnc2c1ncn2C1OC(CO)C(O)C1O (stereo not given) ? F

Which outcome did this test record for the compound C[C@@H]1CCC[C@H](C)N1NC(=O)c1ccc(Cl)c(S(N)(=O)=O)c1 ? F

Answer briefly: the call reported for CC(=O)Nc1c(I)c(C(=O)N[C@H]2[C@@H](O)[C@H](O)[C@H](CO)O[C@@H]2O)c(I)c(N(C)C(C)=O)c1I in this assay. F

I would be grateful if you could indicate the recorded call for CCN(CC)CCC[C@H](C)Nc1c2ccc(Cl)cc2nc2ccc(OC)cc12 . T

Hey, what did the test say about NC(=O)c1cc[n+](CC2=C(C(=O)O)N3C(=O)[C@@H](NC(=O)[C@H](c4ccccc4)S(=O)(=O)[O-])[C@@H]3SC2)cc1 ? T

Assay outcome for O=c1[nH]c(=O)n([C@@H]2C[C@H](O)[C@H](CO)O2)cc1I : what was it? F

I'd appreciate the recorded outcome for CC[C@]1(C)CC(=O)NC1=O from this test. F

###

For each of the molecules below, state its activity change, negative = inhibition.
# ASSAY NAME: AP1 Signaling Pathway (AID 357);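 further: ME-180 reporter cells stimulated with EGF at its EC50 level; on the % scale 0 is the no-effect control and ±100 the full control effect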
# STATED CONDITIONS: ME-180 (cervical carcinoma) AP-1-bla reporter, EGF-induced, beta-lactamase ratio, 5 h; at 7.69 µM (top of the series) unless noted
Results filed as inconclusive are left out. Active and inactive are the calls of the source. The call rests on the fitted dose curve; in most records, active means well fitted curve in either direction with a large enough effect (not every such curve was filed as active); inconclusive means small, poorly fitted or top-dose-only effect, or another doubt; inactive means flat fitted curve, though single readings scatter.

Form: molecule = CN(C)c1ncc2nc(-c3cccs3)c(=O)n(CCc3ccccc3)c2n1 ; activity change, negative = inhibition = 14.4% (inactive)

# activity change, negative = inhibition (molecule: COCCn1c(=O)c(-c2ccc(OC)cc2)nc2cnc(Oc3ccc(OC)cc3)nc21 ) is -20.1% (inactive)

The molecule listed as C[n+]1ccccc1/C=N\O has a reported activity change, negative = inhibition of 1.66% [at 17.2 µM] (inactive)

Per the records, this molecule ( COc1cccc(Nc2ncc3nc(CCc4ccccc4)c(=O)n(CCC#N)c3n2)c1 ) has activity change, negative = inhibition equal to -11.6% (inactive)

Short answer for COc1ccc(-n2c(=O)c(-c3cccc(F)c3)nc3cncnc32)cc1 : activity change, negative = inhibition was -4.56% (inactive)

Query Cn1c(=O)c(-c2ccccc2)nc2cnc(OCc3ccccc3)nc21 yields activity change, negative = inhibition of -1.1% (inactive)

###

# SUBJECT OF TEST: Dual specificity protein kinase CLK4 (Homo sapiens)
# ASSAY NAME: qHTS Assay for Inhibitors of CDC-like Kinase 4 (Kinase-Glo Assay) (AID 1770); further: nearly all actives have a fitted effect of over 65% in size
# STATED CONDITIONS: recombinant Clk4, Kinase-Glo ATP depletion luminescence; series mostly up to 66.7 µM
Records with an inconclusive call do not appear. The source made the active and inactive calls. The call rests on the fitted dose curve; in most records, active means well fitted inhibition curve with a large enough effect; inconclusive means small, poorly fitted or top-dose-only effect; inactive means flat fitted curve, though single readings scatter.
Please state which outcome applies, choosing from Yes = active, No = inactive

I would be grateful if you could indicate the recorded call for CN(C)c1ncc2nc(-c3ccc(Cl)cc3)c(=O)n(C[C@H]3CCCO3)c2n1 . No

# lookup: test call for Cc1cnc(CNc2ccnc(-c3ccoc3)n2)cn1 No

For Cc1ccccc1-c1ccc2ncnc(NCc3cccnc3)c2c1 , what call appears in the results of this test? Yes

Just curious, what result did O=c1c(-c2ccc(F)cc2)nc2cnc(N3CCNCC3)nc2n1Cc1cccs1 get here? No

So what was the verdict on CS(=O)(=O)Nc1cccc(-c2ccc3ncnc(NCc4cccs4)c3c2)c1 in this test? Yes

Which result was noted for this molecule in the test: FC(F)(F)c1ccccc1-c1nc(NC2CC2)c2ccccc2n1 Yes

Hi, do you know how Cc1cnc(CNc2cc(-c3ccc(N(C)C)cc3)ncn2)cn1 came out in this test? Yes

Test call, this molecule: CCNc1ncc2nc(-c3cccs3)c(=O)n(Cc3ccc(F)cc3)c2n1 No

Each molecule tested received a call. Report the one for COc1cccc(-c2ccc3ncnc(NC4CC4)c3c2)c1 . Yes

Each molecule tested received a call. Report the one for COc1ccccc1CNc1ncnc2ccc(-c3ccccc3OC)cc12 . Yes

For this molecule, state the assay outcome: COc1ccccc1-c1ccc2ncnc(NCCN3CCOCC3)c2c1 Yes
